System: ncRNAs (SEQ ID NO 28-89)
Assay: ncRNA arrays of melanocytes, keratinocytes, normal skin, melanoma cell lines and patient samples
Parameters: species or system human
Conditions: melanoma patient 2 sample compared to normal skin
Entries annotated with measured ncRNA array expression, patient 2
QUANTITY KIND: ncRNA array expression, patient 2

[[record]]
substance = "SEQ ID NO 73 (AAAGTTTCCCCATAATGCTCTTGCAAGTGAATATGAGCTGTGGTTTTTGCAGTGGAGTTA; listed as DNA, chemistry not given here; listed as Homo sapiens)"
observed_value = "−0.1172"

[[record]]
substance = "SEQ ID NO 60 (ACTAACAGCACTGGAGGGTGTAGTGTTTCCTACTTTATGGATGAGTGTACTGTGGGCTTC; listed as DNA, chemistry not given here; listed as Homo sapiens)"
observed_value = 2.776

[[record]]
substance = "SEQ ID NO 47 (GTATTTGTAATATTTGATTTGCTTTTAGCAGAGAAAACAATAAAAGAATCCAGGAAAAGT; listed as DNA, chemistry not given here; listed as Homo sapiens)"
observed_value = "−2.442"

